Provide the reported IC50 of each item.
# targetEntity: human Kv1.3 (Homo sapiens)
# Sequence (P22001 whole entry): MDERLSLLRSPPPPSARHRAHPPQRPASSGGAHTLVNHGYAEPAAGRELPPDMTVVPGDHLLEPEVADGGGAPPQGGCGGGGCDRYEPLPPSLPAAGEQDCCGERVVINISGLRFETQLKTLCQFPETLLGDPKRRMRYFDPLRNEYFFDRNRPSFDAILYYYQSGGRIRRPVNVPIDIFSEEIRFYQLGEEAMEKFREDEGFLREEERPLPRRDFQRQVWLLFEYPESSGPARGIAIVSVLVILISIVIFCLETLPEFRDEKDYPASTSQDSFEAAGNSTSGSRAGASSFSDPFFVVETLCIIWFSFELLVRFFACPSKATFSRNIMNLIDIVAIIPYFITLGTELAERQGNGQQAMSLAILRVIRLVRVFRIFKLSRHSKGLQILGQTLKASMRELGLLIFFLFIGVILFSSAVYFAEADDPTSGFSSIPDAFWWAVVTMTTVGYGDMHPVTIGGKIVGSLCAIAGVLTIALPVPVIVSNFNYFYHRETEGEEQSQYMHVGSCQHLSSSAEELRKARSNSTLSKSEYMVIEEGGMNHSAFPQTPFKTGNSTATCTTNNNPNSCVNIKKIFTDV
# methodDescription: Kv1.3 patch-clamp electrophysiology (planar electrode, whole-cell, steady state current)
# conditionLabel: CHO/Kv1.3 stable cell line; steady state current amplitude at end of 500 ms depolarising pulse to +40 mV; values given as ranges; read-out: IC50 (Kv1.3 ephys steady state)

Exam item: Given the entry COc1ccc(CN(C(=O)CCc2ccc(F)cc2)C(C)c2ccccc2)cn1 (centres unmarked) , report its measured IC50.
Marked response: 200 to 1000 nM

Exam item: Try this molecule next: O=C(CCc1ccc(F)cc1)N(Cc1ccccn1)C(c1ccccc1)C1CCCC1 (centres unmarked)
Marked response: 50 to 200 nM

Exam item: What do you have for O=C(CCc1ccc(F)cc1)N(Cc1ccccn1)C(c1ccc(F)cc1)C1CCCC1 (centres unmarked) ?
Marked response: 50 to 200 nM

Exam item: Same question for COc1ccc(C(C2CC2)N(Cc2ccccn2)C(=O)CCc2ccc(F)cc2)cc1 (centres unmarked) please.
Marked response: 50 to 200 nM

Exam item: # repeat for CC(CCN(C(=O)CN1CCCC(F)(F)C1)C(C)c1ccc2c(c1)CCC2)c1ccc(F)cc1 (centres unmarked)
Marked response: 50 to 200 nM

Exam item: Then CC(c1ccccc1)N(Cc1ccccn1)C(=O)CCc1ccc(F)cc1 (centres unmarked) ?
Marked response: 200 to 1000 nM

Exam item: Now consider CC(c1ccc2c(c1)SC(C)(C)O2)N(Cc1ccccn1)C(=O)CCc1ccc(F)cc1 (centres unmarked) and answer again.
Marked response: 200 to 1000 nM

Exam item: Do the same for Cc1cccc(OCCN(C(=O)CC(C)c2ccc(F)cc2)C(C)c2ccc3c(c2)CCC3)n1 (centres unmarked) please
Marked response: 200 to 1000 nM

Exam item: Lookup O=C(C1CC1c1ccc(F)cc1)N(Cc1ccccn1)C(c1ccc(Cl)cc1)C1CC1 (centres unmarked)
Marked response: < 50 nM

Exam item: How about this molecule: CC(c1ccc2c(c1)CCC2)N(CCOc1cccc(Cl)n1)C(=O)CCc1ccc(F)cc1 (centres unmarked)
Marked response: 200 to 1000 nM

Exam item: Note, next up: CC(CCN(C(=O)c1cccnc1)C(C)c1ccc2c(c1)CCC2)c1ccc(F)cc1 (centres unmarked)
Marked response: 200 to 1000 nM

Exam item: Input CC1(C)Oc2ccc(C(C3CC3)N(Cc3ccccn3)C(=O)COc3ccc(F)cc3)cc2S1(=O)=O (centres unmarked)
Marked response: 50 to 200 nM

Exam item: Thanks! And Cc1cnc(C)c(OCCN(C(=O)CC(C)c2ccc(F)cc2)C(C)c2ccc3c(c2)CCC3)n1 (centres unmarked) ?
Marked response: 50 to 200 nM

Exam item: // query: COCc1ccccc1C(C)N(Cc1ccccn1)C(=O)CS(=O)(=O)c1ccc(F)cc1 (centres unmarked)
Marked response: > 1000 nM

Exam item: One more molecule: CC(CC(=O)N(Cc1ccccn1)C(C)c1nncn1C)c1ccc(F)cc1 (centres unmarked)
Marked response: 200 to 1000 nM

Exam item: What do we get for CC(CC(=O)N(CCOc1cccc(Cl)n1)C(C)c1ccc2c(c1)CCC2)c1ccc(F)cc1 (centres unmarked) ?
Marked response: 200 to 1000 nM

Exam item: Now this one: CC(CCN(C(=O)CN1CCC(F)CC1)C(C)c1ccc2c(c1)CCC2)c1ccc(F)cc1 (centres unmarked)
Marked response: 50 to 200 nM
